Reference source for all entries: patent US20230158141A1

Target: T1, IL-10R2-Fc/His (UniProt Q08334 20-220, limits assumed)
T1 sequence (looked up): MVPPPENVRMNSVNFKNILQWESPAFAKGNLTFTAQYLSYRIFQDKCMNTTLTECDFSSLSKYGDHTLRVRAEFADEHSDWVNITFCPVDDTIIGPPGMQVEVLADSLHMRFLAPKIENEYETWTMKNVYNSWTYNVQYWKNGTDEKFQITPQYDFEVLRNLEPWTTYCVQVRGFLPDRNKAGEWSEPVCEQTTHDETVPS
Experiment: ELISA, IL-10R2-Fc/His coated
readout: Binding recovery (>60%)
# unit: % | format: bare number

Please review the entries below; each comes with its answer.
binder | reading_unit | Binding recovery (>60%)
IL-10 Lys130Cys-R4-7 (ligand, human, UniProt P22301 19-178, looked up, R4-7 on Cys 130, mature) SPGQGTQSENSCTHFPGNLPNMLRDLRDAFSRVKTFFQMKDQLDNLLLKESLLEDFKGYLGCQALSEMIQFYLEEVMPQAENQDPDIKAHVNSLGENLKTLRLRLRRCHRFLPCENKSKAVEQVKNAFNCLQEKGIYKAMSEFDIFINYIEAYMTMKIRN | % | 99.7
IL-10 Thr35Cys-R4-5 (ligand, human, UniProt P22301 19-178, looked up, R4-5 on Cys 35, mature) SPGQGTQSENSCTHFPGNLPNMLRDLRDAFSRVKCFFQMKDQLDNLLLKESLLEDFKGYLGCQALSEMIQFYLEEVMPQAENQDPDIKAHVNSLGENLKTLRLRLRRCHRFLPCENKSKAVEQVKNAFNKLQEKGIYKAMSEFDIFINYIEAYMTMKIRN | % | 123
IL-10 Glu96Cys-R4-12 (ligand, human, UniProt P22301 19-178, looked up, R4-12 on Cys 96, mature) SPGQGTQSENSCTHFPGNLPNMLRDLRDAFSRVKTFFQMKDQLDNLLLKESLLEDFKGYLGCQALSEMIQFYLEEVMPQAENQDPDIKAHVNSLGCNLKTLRLRLRRCHRFLPCENKSKAVEQVKNAFNKLQEKGIYKAMSEFDIFINYIEAYMTMKIRN | % | 98
IL-10 Phe36Cys-R4-8 (ligand, human, UniProt P22301 19-178, looked up, R4-8 on Cys 36, mature) SPGQGTQSENSCTHFPGNLPNMLRDLRDAFSRVKTCFQMKDQLDNLLLKESLLEDFKGYLGCQALSEMIQFYLEEVMPQAENQDPDIKAHVNSLGENLKTLRLRLRRCHRFLPCENKSKAVEQVKNAFNKLQEKGIYKAMSEFDIFINYIEAYMTMKIRN | % | 79.6
IL-10 Asn97Cys-R4-18 (ligand, human, UniProt P22301 19-178, looked up, R4-18 on Cys 97, mature) SPGQGTQSENSCTHFPGNLPNMLRDLRDAFSRVKTFFQMKDQLDNLLLKESLLEDFKGYLGCQALSEMIQFYLEEVMPQAENQDPDIKAHVNSLGECLKTLRLRLRRCHRFLPCENKSKAVEQVKNAFNKLQEKGIYKAMSEFDIFINYIEAYMTMKIRN | % | 80.7
IL-10 Gln123Cys-R4-19 (ligand, human, UniProt P22301 19-178, looked up, R4-19 on Cys 123, mature) SPGQGTQSENSCTHFPGNLPNMLRDLRDAFSRVKTFFQMKDQLDNLLLKESLLEDFKGYLGCQALSEMIQFYLEEVMPQAENQDPDIKAHVNSLGENLKTLRLRLRRCHRFLPCENKSKAVECVKNAFNKLQEKGIYKAMSEFDIFINYIEAYMTMKIRN | % | 96.5

Query binder follows.
Consider the binder IL-10 Asn92Cys-R4-18 (ligand, human, UniProt P22301 19-178, looked up, R4-18 on Cys 92, mature) SPGQGTQSENSCTHFPGNLPNMLRDLRDAFSRVKTFFQMKDQLDNLLLKESLLEDFKGYLGCQALSEMIQFYLEEVMPQAENQDPDIKAHVCSLGENLKTLRLRLRRCHRFLPCENKSKAVEQVKNAFNKLQEKGIYKAMSEFDIFINYIEAYMTMKIRN . State its measured Binding recovery (>60%).
86.4
